// reported logP for each item listed

given smiles	logP
c1ccc2sc(SCCCc3cnc[nH]3)nc2c1	3.24
c1ccc2sc(NCCc3c[nH]cn3)nc2c1	2.36
c1ncc(CCCc2nc(C3CCCCC3)c[nH]2)[nH]1	2.94
c1ccc2sc(SCCc3cnc[nH]3)nc2c1	3.12
c1ccc(-c2cnc(SCCc3cnc[nH]3)[nH]2)cc1	2.45
S=C(NC1CCCCC1)N1CCC(c2cnc[nH]2)CC1	2.4
c1ccc2sc(NCCCc3cnc[nH]3)nc2c1	2.71
O=S(=O)(Cc1ccc(Cl)cc1)NCCCCc1cnc[nH]1	2.23
c1ccc(-c2c[nH]c(CCCc3cnc[nH]3)n2)cc1	2.5
Clc1ccc2[nH]c(NCCCc3cnc[nH]3)nc2c1	2.49
Clc1ccc(Cc2noc(CCc3cnc[nH]3)n2)cc1	2.51
